measured_on: T1, His-tagged, full-length PCSK9 (human, UniProt Q8NBP7 31-692)
T1 construct: The secreted protein is autocleaved into a prodomain and a catalytic/Cys-rich chain that starts at S153; also called His-PCSK9
procedure_text: TR-FRET competition; His-PCSK9, competitor EGF(A)-Fc
Square brackets hold non-standard residues; d marks the D form. Ends that are not written are not given here. * marks the point of attachment. Trp(6-Cl) = N[C@@H](Cc1c[nH]c2cc(Cl)ccc12)C(=O)O; hArg = N=C(N)NCCCC[C@H](N)C(=O)O; Pentanoyl = CCCCC(=O)*
quantity_kind: pIC50
The value called pIC50 is obtained by taking minus log10 of the concentration in mol/L.

The following binders have reported results that may help.
Pentanoyl-[Trp(6-Cl)]NLVRIGLTR-NH2 (SMILES CCCCC(=O)N[C@@H](Cc1c[nH]c2cc(Cl)ccc12)C(=O)N[C@@H](CC(N)=O)C(=O)N[C@@H](CC(C)C)C(=O)N[C@H](C(=O)N[C@@H](CCCNC(=N)N)C(=O)N[C@H](C(=O)NCC(=O)N[C@@H](CC(C)C)C(=O)N[C@H](C(=O)N[C@@H](CCCNC(=N)N)C(N)=O)[C@@H](C)O)[C@@H](C)CC)C(C)C) [Compound 186]: 4.51
WNLV[hArg]IGLLR (also: further groups not given here, Structure printed only as a drawing) [Compound 224]: 5.15

Switching to the query record.
Input: For the binder WNLVRIGLLR (also: further groups not given here, Structure printed only as a drawing) [Compound 145] , what pIC50 is on record?
Output: 5.14
